MATE2 values by entry
TARGET_OR_SYSTEM: MATE2K (Homo sapiens)
Sequence (Q86VL8 1-566 isoform Q86VL8-3): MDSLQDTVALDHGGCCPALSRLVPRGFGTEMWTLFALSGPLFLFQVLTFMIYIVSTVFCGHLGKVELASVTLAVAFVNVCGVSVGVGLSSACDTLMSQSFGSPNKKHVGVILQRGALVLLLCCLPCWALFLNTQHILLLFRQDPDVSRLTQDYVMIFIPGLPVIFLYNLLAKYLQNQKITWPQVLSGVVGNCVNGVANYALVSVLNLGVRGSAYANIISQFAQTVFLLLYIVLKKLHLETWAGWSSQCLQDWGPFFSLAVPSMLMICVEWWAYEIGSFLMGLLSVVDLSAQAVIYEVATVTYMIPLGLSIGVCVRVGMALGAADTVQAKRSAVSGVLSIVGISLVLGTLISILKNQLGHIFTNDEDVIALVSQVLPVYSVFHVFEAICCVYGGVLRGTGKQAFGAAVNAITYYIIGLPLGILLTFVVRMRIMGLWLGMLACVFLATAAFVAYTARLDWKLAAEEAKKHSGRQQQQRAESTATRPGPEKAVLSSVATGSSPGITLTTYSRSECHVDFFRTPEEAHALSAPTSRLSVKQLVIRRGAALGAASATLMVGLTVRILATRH
TEST_METHOD_NOTES: Uptake ratio in MATE2K-overexpressing HEK293 cells vs empty vector (2.5 μM, 1 min, HPLC-MS/MS)
Assay type: cell-based
CONDITION_DESCRIPTION: uptake ratio MATE2K-overexpressing vs empty-vector HEK293 cells, 2.5 μM, 1 min; mean
Just the number, please, no unit after it.

MOLECULE: CN(C)CCOC1=Cc2ccccc2Sc2ccc(Cl)cc21 [Zotepin]
TARGET_OR_SYSTEM: MATE2K (Homo sapiens)
MATE2: 1.34
--
MOLECULE: N#CC[C@H](C1CCCC1)n1cc(-c2ncnc3[nH]ccc23)cn1
TARGET_OR_SYSTEM: MATE2K (Homo sapiens)
MATE2: 0.99
--
MOLECULE: C[C@H](NCCc1ccc(O)cc1)[C@H](O)c1ccc(O)cc1 (racemic)
TARGET_OR_SYSTEM: MATE2K (Homo sapiens)
MATE2: 2.23
--
MOLECULE: COC(=O)[C@H]1[C@H]2C[C@@H]3c4[nH]c5cc(OC)ccc5c4CCN3C[C@H]2C[C@@H](OC(=O)c2cc(OC)c(OC)c(OC)c2)[C@@H]1OC
TARGET_OR_SYSTEM: MATE2K (Homo sapiens)
MATE2: 1.08
--
MOLECULE: CC(C)NCC(O)COc1cccc2ccccc12 [Propranolol (R), Propranolol]
TARGET_OR_SYSTEM: MATE2K (Homo sapiens)
MATE2: 1.04
--
MOLECULE: CC(C)(C)NCC(O)c1ccc(O)c(CO)c1 (centres unmarked) [Salbutamol]
TARGET_OR_SYSTEM: MATE2K (Homo sapiens)
MATE2: 3.73
--
MOLECULE: NC(=O)c1cnccn1 [Pyrazinamide]
TARGET_OR_SYSTEM: MATE2K (Homo sapiens)
MATE2: 1.05
--
MOLECULE: O=c1ncccn1[C@@H]1O[C@H](CO)[C@@H](O)[C@H]1O
TARGET_OR_SYSTEM: MATE2K (Homo sapiens)
MATE2: 0.9
--
MOLECULE: NCCCNCCCCNCCCN
TARGET_OR_SYSTEM: MATE2K (Homo sapiens)
MATE2: 1.25
--
MOLECULE: OCCOCCN1CCN(C2=Nc3ccccc3Sc3ccccc32)CC1
TARGET_OR_SYSTEM: MATE2K (Homo sapiens)
MATE2: 1.28

The molecule CCCCNc1ccc(C(=O)OCCN(C)C)cc1 , tested on MATE2K (Homo sapiens), showed MATE2 of 1.3

The molecule C#CCN[C@@H]1CCc2ccccc21 [Rasagiline] , tested on MATE2K (Homo sapiens), showed MATE2 of 2.16

The molecule CC(C)[N+](C)(CCOC(=O)C1c2ccccc2Oc2ccccc21)C(C)C , tested on MATE2K (Homo sapiens), showed MATE2 of 5.77

The molecule Cc1ncc(C[n+]2csc(CCO)c2C)c(N)n1 , tested on MATE2K (Homo sapiens), showed MATE2 of 10.63

The molecule Cc1ncc(CO)c(C=O)c1O , tested on MATE2K (Homo sapiens), showed MATE2 of 1.14

The molecule CC(C)NCC(O)COc1cccc2ccccc12 [Propranolol (S), Propranolol] , tested on MATE2K (Homo sapiens), showed MATE2 of 0.96

The molecule C=CCN1CCCC1CNC(=O)c1cc(S(N)(=O)=O)cc(OC)c1OC (centres unmarked) [Veralipride] , tested on MATE2K (Homo sapiens), showed MATE2 of 4.21

The molecule O=C(O[C@H]1CN2CCC1CC2)N1CCc2ccccc2[C@@H]1c1ccccc1 , tested on MATE2K (Homo sapiens), showed MATE2 of 1.22

The molecule NCCS(=O)(=O)O , tested on MATE2K (Homo sapiens), showed MATE2 of 1.2

The molecule CNC(=C[N+](=O)[O-])NCCSCc1ccc(CN(C)C)o1 , tested on MATE2K (Homo sapiens), showed MATE2 of 8.62
